Provide the recorded Normalization for the entries that follow.
Test system: Mus musculus
Assay: In vivo euglycemic activity (administered by oral gavage) in C57/6J-ob/ob mice by normalization of blood glucose levels at a dose of 1 mg/kg.
Format: functional
Note: unit % is implicit; provide only the numeric part.

q: Consider the compound Cc1oc(-c2ccc(O)cc2)nc1CCC(=O)c1ccc(CC2SC(=O)NC2=O)cc1 (stereo not given) and give its measured Normalization.
a: 0

q: Please report the recorded Normalization for Cc1ccc(-c2nc(C/C=C/c3ccc(CC4SC(=O)NC4=O)s3)c(C)o2)cc1 (stereo not given) .
a: 98

q: // returns reported Normalization for input Cc1oc(-c2ccc(C(F)(F)F)cc2)nc1CCC(=O)c1ccc(CC2SC(=O)NC2=O)s1 (stereo not given)
a: 78

q: Reported Normalization, compound Cc1oc(-c2ccccc2)nc1CCC(=O)c1ccc(CC2SC(=O)NC2=O)s1 (stereo not given) : ____
a: 37

q: What value of Normalization has been recorded for this entry: Cc1oc(-c2cccs2)nc1CCC(=O)c1ccc(CC2SC(=O)NC2=O)cc1 (stereo not given)
a: 84

* * *

Test system: Mus musculus
Experiment: In vivo euglycemic activity (administered by oral gavage) in C57/6J-ob/ob mice by normalization of blood glucose levels at a dose of 1 mg/kg.
Assay type: functional
Quick rule for you: Normalization at 60% or higher means Y, lower means N.

q: Test whether the compound `Cc1oc(-c2ccccc2)nc1CCC(=O)c1ccc(/C=C2\SC(=O)NC2=O)cc1` records Normalization of 60% or higher.
a: Y

q: # check: Normalization of `Cc1ccc(-c2nc(CCC(=O)c3ccc(/C=C4\SC(=O)NC4=O)cc3)co2)cc1` is greater than or equal to 60%
a: N

q: Is it the case that Cc1oc(-c2ccc3ccccc3c2)nc1CCC(=O)c1ccc(CC2SC(=O)NC2=O)cc1 (stereo not given) has Normalization reaching or exceeding 60%?
a: N

q: Please check the record `Cc1oc(-c2ccco2)nc1CCC(=O)c1ccc(/C=C2\SC(=O)NC2=O)cc1` and state if its Normalization is at or above 60%.
a: N

q: Record COc1c(C)cc(-c2nc(CCC(=O)c3ccc(CC4SC(=O)NC4=O)cc3)c(C)o2)cc1C (stereo not given) ; criterion: Normalization no lower than 60%. Met?
a: Y

* * *

System: Mus musculus
Assay: In vivo euglycemic activity (administered by oral gavage) in C57/6J-ob/ob mice measured by normalization of blood glucose levels at a dose of 5 mg/kg.
Format: functional
Provide the recorded Normalization for the entries that follow.
Could you kindly put the unit after your number?

q: Please look up its Normalization: Cc1oc(-c2ccccc2)nc1CNC(=O)c1ccc(CC2SC(=O)NC2=O)cc1 (centres undefined)
a: 50%

q: Which measured Normalization value corresponds to COc1ccc(/C=C/C(=O)c2ccc(CC3SC(=O)NC3=O)cc2)cc1 (centres undefined) ?
a: 0%

q: Which Normalization is listed for O=C1NC(=O)C(Cc2ccc(C(=O)/C=C/c3ccccc3Cl)cc2)S1 (centres undefined) ?
a: 65%

q: Form field: reported Normalization of O=C1NC(=O)C(Cc2ccc(CCCc3ccccc3)cc2)S1 (centres undefined)
a: 46%

q: What does the data say about its Normalization? Entry: Cc1oc(-c2ccccc2)nc1CN(C(=O)c1ccc(CC2SC(=O)NC2=O)cc1)c1ccccc1 (centres undefined)
a: 23%

q: GET /values?readout=Normalization&item= Cc1oc(-c2ccccc2)nc1CC/C(=N\OCc1ccccc1)c1ccc(CC2SC(=O)NC2=O)cc1 (centres undefined)
a: 17%

q: May I ask what Normalization has been recorded for O=C1NC(=O)C(Cc2ccc(C(O)CCc3ccccc3)cc2)S1 (centres undefined) ?
a: 47%

q: I'd like to know its Normalization. The molecule in question is O=C1NC(=O)C(Cc2ccc(C(=O)CCc3csc(-c4ccccc4)n3)cc2)S1 (centres undefined)
a: 91%

q: I'd like to know its Normalization. The molecule in question is O=C1NC(=O)C(Cc2ccc3c(c2)CCC(Cc2ccccc2)C3=O)S1 (centres undefined)
a: 39%

q: Normalization lookup needed for Cc1nc(-c2ccccc2)sc1CCC(=O)c1ccc(CC2SC(=O)NC2=O)cc1 (centres undefined) , thanks.
a: 75%

q: So what does the record say about Normalization for O=C1NC(=O)C(Cc2ccc(C(=O)CCc3ccc(-c4ccccc4)cc3)cc2)S1 (centres undefined) ?
a: 54%

q: Requested field: Normalization. Item: Cc1oc(-c2ccccc2)nc1CCS(=O)(=O)c1ccc(CC2SC(=O)NC2=O)cc1 (centres undefined)
a: 69%

q: Entry Cc1oc(-c2ccccc2)nc1CNS(=O)(=O)c1ccc(CC2SC(=O)NC2=O)cc1 (centres undefined) has what Normalization?
a: 0%

q: Requested read-out: Normalization. Entry: CO/N=C(\CCc1nc(-c2ccccc2)oc1C)c1ccc(CC2SC(=O)NC2=O)cc1 (centres undefined)
a: 100%
